test system: HepG2; test: Cytotoxicity against human HepG2 cells at 0.0003 to 100 uM after 48 hrs by ATPlite assay; type: cell-based; settings: hepg2, 48 h
Quantity Kind: Activity

compound="COc1cc([C@H]2Oc3cc([C@H]4Oc5cc(O)cc(O)c5C(=O)[C@@H]4O)ccc3O[C@@H]2CO)ccc1O [SILYBIN A]" quantity_kind=Activity result=Toxic
compound="COc1cc(C2Oc3cc(-c4oc5cc(O)cc(O)c5c(=O)c4O)ccc3OC2CO)ccc1O (stereo not given) [DEHYDROSILYLBIN]" quantity_kind=Activity result=Toxic
compound=COc1cc([C@@H]2Oc3c(O)cc([C@@H]4CC(=O)c5c(O)cc(O)cc5O4)cc3[C@H]2CO)ccc1O quantity_kind=Activity result=Toxic
compound=COc1cc(-c2oc3c(O)cc([C@H]4Oc5cc(O)cc(O)c5C(=O)[C@@H]4O)cc3c2C)ccc1O quantity_kind=Activity result=Toxic
compound="COc1cc([C@@H]2Oc3cc([C@H]4Oc5cc(O)cc(O)c5C(=O)[C@@H]4O)ccc3O[C@H]2CO)ccc1O [SILYBIN B]" quantity_kind=Activity result=Toxic
compound=COc1cc([C@@H]2Oc3c(O)cc(-c4oc5cc(O)cc(O)c5c(=O)c4O)cc3[C@H]2CO)ccc1O quantity_kind=Activity result=Toxic
compound=COc1cc(-c2oc3c(O)cc(-c4oc5cc(O)cc(O)c5c(=O)c4O)cc3c2C)ccc1O quantity_kind=Activity result=Toxic
compound="CC[C@@]1(O)C(=O)OCc2c1cc1n(c2=O)Cc2cc3ccccc3nc2-1 [CAMPTOTHECIN]" quantity_kind=Activity result=Toxic
compound="COc1cc([C@@H]2Oc3c(O)ccc([C@H]4Oc5cc(O)cc(O)c5C(=O)[C@@H]4O)c3[C@H]2CO)ccc1O [ISOSILYCHRISTIN]" quantity_kind=Activity result=Non-Toxic
compound="COc1cc(C2Oc3c(O)cc([C@H]4Oc5cc(O)cc(O)c5C(=O)[C@@H]4O)cc3C2CO)ccc1O (stereo not given in full) [SILICRISTIN]" quantity_kind=Activity result=Non-Toxic

----------
test system: TERT-RPE1; experiment: Cytotoxicity against human RPE1 cells at 0.0003 to 100 uM after 48 hrs by ATPlite assay; type: cell-based; details: tert-rpe1, 48 h
Quantity Kind: Activity

smiles_repr=COc1cc(-c2oc3c(O)cc([C@H]4Oc5cc(O)cc(O)c5C(=O)[C@@H]4O)cc3c2C)ccc1O experimental_target=TERT-RPE1 result=Toxic
smiles_repr=COc1cc([C@@H]2Oc3c(O)cc([C@@H]4CC(=O)c5c(O)cc(O)cc5O4)cc3[C@H]2CO)ccc1O experimental_target=TERT-RPE1 result=Toxic
smiles_repr=COc1cc([C@@H]2Oc3cc([C@H]4Oc5cc(O)cc(O)c5C(=O)[C@@H]4O)ccc3O[C@H]2CO)ccc1O experimental_target=TERT-RPE1 result=Toxic

----------
system: MCF7; assay: Cytotoxicity against human MCF7 cells at 0.0003 to 100 uM after 48 hrs by ATPlite assay; format: cell-based; details: mcf7, 48 h
Quantity Kind: Activity

compound=CC[C@@]1(O)C(=O)OCc2c1cc1n(c2=O)Cc2cc3ccccc3nc2-1 quantity_kind=Activity result=Toxic
compound="COc1cc(C2Oc3c(O)cc([C@H]4Oc5cc(O)cc(O)c5C(=O)[C@@H]4O)cc3C2CO)ccc1O (some centres not stated)" quantity_kind=Activity result=Non-Toxic
compound=COc1cc([C@H]2Oc3cc([C@H]4Oc5cc(O)cc(O)c5C(=O)[C@@H]4O)ccc3O[C@@H]2CO)ccc1O quantity_kind=Activity result=Toxic
compound=COc1cc([C@@H]2Oc3cc([C@H]4Oc5cc(O)cc(O)c5C(=O)[C@@H]4O)ccc3O[C@H]2CO)ccc1O quantity_kind=Activity result=Toxic
compound=COc1cc([C@@H]2Oc3c(O)cc([C@@H]4CC(=O)c5c(O)cc(O)cc5O4)cc3[C@H]2CO)ccc1O quantity_kind=Activity result=Toxic
compound=COc1cc(-c2oc3c(O)cc([C@H]4Oc5cc(O)cc(O)c5C(=O)[C@@H]4O)cc3c2C)ccc1O quantity_kind=Activity result=Toxic
compound=COc1cc([C@@H]2Oc3c(O)ccc([C@H]4Oc5cc(O)cc(O)c5C(=O)[C@@H]4O)c3[C@H]2CO)ccc1O quantity_kind=Activity result=Non-Toxic
